Tested on: Pseudomonas aeruginosa (ATCC 15442) biofilms
Experiment: MBEC test, 24-hour biofilm, one hour biocide challenge
Type: cell-based
Details: Pseudomonas aeruginosa, ATCC15442, 1 h, 24-hour biofilm, 1 hour contact; average of duplicate runs; blends: total amount of components (1:1 ratio); read-out: MBEC, avg.
Reported minimum biofilm eradication concentration (MBEC) values for a set of molecules
measurement.type: minimum biofilm eradication concentration (MBEC)

molecule="CCCCNCCCC [N,N-Dibutylamine]" experimental_system="Pseudomonas aeruginosa (ATCC 15442) biofilms" reported_measurement="> 1600 µg/mL"
molecule="CCCCCCCCCCCCCCCCN(C)C [N,N-Dimethylhexadecylamine]" experimental_system="Pseudomonas aeruginosa (ATCC 15442) biofilms" reported_measurement="> 200 µg/mL"
molecule="CCCCCCCCCCN(C)C [N,N-Dimethyldecylamine]" experimental_system="Pseudomonas aeruginosa (ATCC 15442) biofilms" reported_measurement="> 400 µg/mL"
molecule="CCCCCCCCN(C)C [N,N-Dimethyloctylamine]" experimental_system="Pseudomonas aeruginosa (ATCC 15442) biofilms" reported_measurement="> 800 µg/mL"

====

System: Pseudomonas aeruginosa (ATCC 15442) biofilms
Test: MBEC test, 24-hour biofilm, one hour biocide challenge;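 further: Peg-grown biofilms exposed to biocide, then regrowth in broth 18 h at 35 °C, turbidity by absorbance at 650 nm, above 0.100 counted as growth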
Type: cell-based
Settings: Pseudomonas aeruginosa, ATCC15442, 1 h, 24-hour biofilm, 1 hour contact; blends: total amount of components (1:1 ratio); read-out: MBEC, ppm (first of duplicate runs)
measurement.type: minimum biofilm eradication concentration (MBEC)

given_smiles=CCCCCCCCCCN(C)C experimental_system="Pseudomonas aeruginosa (ATCC 15442) biofilms" reported_measurement="> 400 µg/mL"
given_smiles=CCCCCCCCN(C)C experimental_system="Pseudomonas aeruginosa (ATCC 15442) biofilms" reported_measurement="> 800 µg/mL"
given_smiles=CCCCCCCCNCCCCCCCC experimental_system="Pseudomonas aeruginosa (ATCC 15442) biofilms" reported_measurement="1600 µg/mL"
given_smiles=CCCCCCCCCCCCCCCCN experimental_system="Pseudomonas aeruginosa (ATCC 15442) biofilms" reported_measurement="200 µg/mL"
given_smiles=CCCCNCCCC experimental_system="Pseudomonas aeruginosa (ATCC 15442) biofilms" reported_measurement="> 1600 µg/mL"
